System: BMX;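 also: KINOMEscan kinase panel screen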
Settings: concentration: 1 μM, replicates: in singlicate; n = 1
Please assign false whenever %Inh is at or above 20%, and true whenever it is below.

Example results:
Query smiles: c1ccc(-c2n[nH]cc2Nc2ccnc3ccccc23)nc1
Label class: true

Query smiles: Cn1cc(-c2ccc3c(c2)CCN3C(=O)Cc2cccc(F)c2)c2c(N)ncnc21
Label class: true

Query smiles: Nc1ncnc2c1nc(-c1ccccc1)n2-c1ccccc1
Label class: true

Query smiles: CSc1cccc2c(-c3ccncn3)c(-c3ccc(F)cc3)nn12
Label class: true

Query: Does the reported %Inh of CC(=O)N1CCN(c2ccc(Nc3nccc(-c4sc(C(C)C)nc4-c4cccc(NS(=O)(=O)c5cccc(Cl)c5)c4)n3)cn2)CC1 stay below 20%?
Reply: false

Query: Also CCn1c(-c2nonc2N)nc2c(C#CC(C)(C)O)ncc(OCCCCN)c21.O=C(O)C(F)(F)F.O=C(O)C(F)(F)F , if possible.
Reply: true

Query: Also Cc1cccc(Nc2nc(N[C@H]3CCNC3)ncc2C(N)=O)c1.Cl , if possible.
Reply: true

Query: Also Cc1ccc(F)c(C(=O)Nc2cccc(-c3nn4ccccc4c3-c3ccnc(Nc4cccc(F)c4)n3)c2)c1F , if possible.
Reply: false
